Cited source: patent US5225425A

The entries below are paired with their reported pIC50.
Target: PAF receptor (Oryctolagus cuniculus, UniProt G1TEI7)
Construct: centrifuged at 800 rpm for 10-15 minutes at room temperature to recover the platelet rich plasma (PRP); from tissue; host or cells: platelets in platelet rich plasma from blood of male New Zealand White rabbits
Sequence (G1TEI7 1-342): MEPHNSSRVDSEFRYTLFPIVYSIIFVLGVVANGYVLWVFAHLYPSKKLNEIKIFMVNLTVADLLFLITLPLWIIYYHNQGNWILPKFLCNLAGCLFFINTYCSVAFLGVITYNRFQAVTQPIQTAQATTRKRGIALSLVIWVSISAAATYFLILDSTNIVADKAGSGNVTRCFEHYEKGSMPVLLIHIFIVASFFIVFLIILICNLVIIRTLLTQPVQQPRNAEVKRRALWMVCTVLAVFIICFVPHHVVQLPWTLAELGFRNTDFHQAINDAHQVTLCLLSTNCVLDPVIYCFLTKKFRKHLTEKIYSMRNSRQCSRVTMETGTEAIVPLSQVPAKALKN
Assay: Inhibition of PAF induced platelet aggregation in rabbit platelet rich plasma
Type: cell-based, rabbit (New Zealand White)
Conditions: PAF challenge .0000005 M
pIC50: −log10 of the molar value.
Assay readout: pIC50

CCCCCCCCCCCCCCCCOc1ccc(OCC(=O)Nc2ccccc2C[n+]2csc(C)c2)cc1: 5.42
CCCCCCCCCCCCCCOc1ccc(CCN(C(C)=O)c2cccc(C[n+]3csc(C)c3)c2)cc1: 5.37

---

Target: PAF receptor (Oryctolagus cuniculus, UniProt G1TEI7)
Construct: centrifuged at 800 rpm for 10-15 minutes at room temperature to recover the platelet rich plasma (PRP); from tissue; host or cells: platelets in platelet rich plasma from blood of male New Zealand White rabbits
Experiment: Inhibition of PAF induced platelet aggregation in rabbit platelet rich plasma
Type: cell-based, rabbit (New Zealand White)
Settings: PAF challenge 5E-9 M
pIC50: −log10 of the molar value.
Assay readout: pIC50

CCCCCCCCCCCCCCOc1ccc(CC(=O)Nc2cccc(C[n+]3ccsc3)c2)cc1.[Br-]: 6.92
CCCCCCCCCCCCCCOc1cccc(CC(=O)Nc2cccc(C[n+]3csc(C)c3)c2)c1.[Br-]: 5.97
CCCCCCCCCCCCCCOc1cccc(CC(=O)Nc2ccccc2C[n+]2csc(C)c2)c1: 4.47

---

Molecular target: PAF receptor (Oryctolagus cuniculus)
Construct: centrifuged at 800 rpm for 10-15 minutes at room temperature to recover the platelet rich plasma (PRP); from tissue; host or cells: platelets in platelet rich plasma from blood of male New Zealand White rabbits
Test: Inhibition of PAF induced platelet aggregation in rabbit platelet rich plasma
Assay type: cell-based, rabbit (New Zealand White)
Conditions: dose .00001 M; PAF challenge 5.0000E-08 M; read-out: % INH of PAF induced platelet aggregation
Where a name gives a salt, the structure may show the parent alone.
Label met when inhibition at 10 µM is at or above 80%; anything below gets not met.

CCCCCCCCCCCCCCOc1ccc(NC(=O)Nc2cccc(C[n+]3csc(C)c3)c2)cc1: met
CCCCCCCCCCCCCCOc1ccc(CN(C(=O)NC)c2cccc(C[n+]3csc(C)c3)c2)cc1.[Br-]: met
CCCCCCCCCCCCCCOc1ccc(CC(=O)Nc2cccc(C[n+]3ccsc3)c2)cc1.[Br-]: met
CCCCCCCCCCCCCCOc1ccc(CC(=O)Nc2cccc(-c3scc[n+]3C)c2)cc1: not met
CCCCCCCCCCCCCCOc1ccc(CC(=O)Nc2ccc(-n3cc[n+](C)c3C)cc2)cc1: not met
CCCCCCCCCCCCCCCCOc1ccc(OCC(=O)Nc2cccc(C[n+]3csc(C)c3)c2)cc1: not met
CCCCCCCCCCCCCCOc1cccc(CC(=O)Nc2ccccc2C[n+]2csc(C)c2)c1: not met
CCCCCCCCCCCCCCOc1ccc(C(=O)Nc2cccc(C[n+]3csc(C)c3)c2)cc1: not met
CCCCCCCCCCCCCCOc1ccc(CC(=O)Nc2ccc(C[n+]3csc(C)c3)cc2)cc1.[Br-]: met
CCCCCCCCCCCCCCOc1ccc(CC(=O)Nc2cccc(-n3ccnc3C)c2)cc1 [monohydrochloride]: not met

---

Target: PAF receptor (Oryctolagus cuniculus, UniProt G1TEI7)
Construct: centrifuged at 800 rpm for 10-15 minutes at room temperature to recover the platelet rich plasma (PRP); from tissue; host or cells: platelets in platelet rich plasma from blood of male New Zealand White rabbits
Assay: Inhibition of PAF induced platelet aggregation in rabbit platelet rich plasma
Format: cell-based, rabbit (New Zealand White)
Details: dose .00001 M; PAF challenge 5.0000E-08 M; read-out: % INH of PAF induced platelet aggregation
Assay readout: inhibition at 10 µM (%)

CCCCCCCCCCCCCCOc1ccc(CC(=O)Nc2cccc(C[n+]3cc(C)cc(C)c3)c2)cc1: 84
CCCCCCCCCCCCCCOc1ccc(CC(=O)Nc2cccc(C[n+]3ccn4ccccc43)c2)cc1: 91
CCCCCCCCCCCCCCOc1ccc(CN(C(C)=O)c2cccc(C[n+]3ccc(C)c(C)c3)c2)cc1: 52
CCCCCCCCCCCCCCOc1ccc(NC(=O)c2cccc(C[n+]3csc(C)c3)c2)cc1: 89
CCCCCCCCCCCCCCOc1ccc(CN(C(C)=O)c2cccc(C[n+]3csc(C)c3)c2)cc1.[Br-]: 98
